test: NCI Yeast Anticancer Drug Screen. Data for the rad50 strain (AID 155);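 further: 0% = growth of vehicle-only cultures of the same strain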; conditions: S. cerevisiae rad50 strain growth inhibition; at 50.0 µM; stronger effect = higher value
This is part of a sample that, as a whole, favours compounds with a hit. Of some 79,000 tested, about 15% had one in any assay. The source made the active and inactive calls. No stated cut-off is given here; in the data, active means growth inhibition above about 70%; inactive means the rest.
Task for the reader: assign each of the following compounds its reported growth inhibition.

For CC(=O)Nc1ccc(N=NN(C)c2ccccc2)cc1 , what is its reported growth inhibition?
29.4% (inactive)

For COC(OC)C1CC=CCCC1C(=O)O (stereo not drawn) , what is its reported growth inhibition?
17.1% (inactive)

For CC(=O)CC(=O)Nc1ccccc1Cl , what is its reported growth inhibition?
19.4% (inactive)

For COc1ccc(C2=NOC(c3ccc(OC)cc3)C2)cc1 (stereo not drawn) , what is its reported growth inhibition?
-6.85% (inactive)

For COc1ccc(Cc2ccc3c(c2)OCO3)cc1C , what is its reported growth inhibition?
-12.1% (inactive)

For CCOC(=O)c1ccccc1S(=O)(=O)c1ccccc1C(=O)OCC , what is its reported growth inhibition?
1.4% (inactive)

For O=c1[nH]c(=O)n(C2CC(O)C(CO)O2)cc1/C=C/Br (stereo not drawn) , what is its reported growth inhibition?
-17.9% (inactive)

For O=C(O)CCC(=O)Nc1cc(C(F)(F)F)ccc1Cl , what is its reported growth inhibition?
24.1% (inactive)

For c1ccc2c(c1)c1ccccc1n2Cn1c2ccccc2c2ccccc21 , what is its reported growth inhibition?
-1.1% (inactive)

For Cc1ccnc2[nH]c(-c3cccc(Cl)c3)cc(=O)c12 , what is its reported growth inhibition?
-23.4% (inactive)

For COC(=O)c1cccnc1F , what is its reported growth inhibition?
3.9% (inactive)

For CCCN(CCC)CC(O)CN(CCC)CCC , what is its reported growth inhibition?
-0.4% (inactive)

For C/C(CC(=O)Nc1cccc([N+](=O)[O-])c1)=N\NC(=O)CC#N , what is its reported growth inhibition?
-3.45% (inactive)
